FYI, the data here is from paper PMC3272148.

Biological target: dopamine1 (D1) receptor (Oryctolagus cuniculus, UniProt G1SML2)
Sequence (G1SML2 1-448): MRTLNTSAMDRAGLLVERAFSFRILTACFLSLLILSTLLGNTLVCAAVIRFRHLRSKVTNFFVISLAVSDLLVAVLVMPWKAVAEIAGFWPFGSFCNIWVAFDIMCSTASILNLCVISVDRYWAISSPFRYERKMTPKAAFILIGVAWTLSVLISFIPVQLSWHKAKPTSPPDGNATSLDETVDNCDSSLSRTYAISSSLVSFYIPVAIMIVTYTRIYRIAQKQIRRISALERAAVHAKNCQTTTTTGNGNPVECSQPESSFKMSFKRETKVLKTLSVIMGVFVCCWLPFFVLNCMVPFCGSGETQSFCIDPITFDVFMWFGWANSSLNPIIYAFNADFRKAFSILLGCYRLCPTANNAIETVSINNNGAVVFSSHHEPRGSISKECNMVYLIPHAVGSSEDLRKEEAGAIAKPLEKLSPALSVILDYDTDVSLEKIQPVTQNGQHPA
Experiment: [3H]SCH23390 competition radioligand binding
value-type: Ki (nM)
Answers are plain numbers, in nM.

Given the entry CCN(CC)C(=O)[C@@H]1C=C2c3cccc4[nH]cc(c34)C[C@H]2N(C)C1 , report its measured Ki.
161
